Could you please report measured Rf for the items listed next?
Experiment: Retardation factor of the compound using n-BuOH-AcOH-H2O at ratio of 3:1:2 as solvent system by silica gel based chromatography
Format: physicochemical
One number for each entry.

A selection of reference data follows.
[[record]]
smiles_notation = "Cc1cc(NCCCCCCCNc2cc(C)nc3cc(N)ccc23)c2ccc(N)cc2n1.Cl"
property_name = "Rf"
quantitative_result = 0.63

[[record]]
smiles_notation = "Cc1cc(NCCCCCCCCNc2cc(C)nc3cc([N+](=O)[O-])ccc23)c2ccc([N+](=O)[O-])cc2n1.Cl"
property_name = "Rf"
quantitative_result = 0.8

[[record]]
smiles_notation = "Cc1cc(NCCCCNCCCNc2cc(C)nc3cc(N)ccc23)c2ccc(N)cc2n1.Cl"
property_name = "Rf"
quantitative_result = 0.5

[[record]]
smiles_notation = "Cc1cc(NCCCCCCCCNc2cc(C)nc3cc(N)ccc23)c2ccc(N)cc2n1.Cl"
property_name = "Rf"
quantitative_result = 0.7

[[record]]
smiles_notation = "Cc1cc(NCCCNCCCNc2cc(C)nc3cc(N)ccc23)c2ccc(N)cc2n1.Cl"
property_name = "Rf"
quantitative_result = 0.57

[[record]]
smiles_notation = "Cc1cc(NCCCCNCCCNc2cc(C)nc3cc([N+](=O)[O-])ccc23)c2ccc([N+](=O)[O-])cc2n1.Cl"
property_name = "Rf"
quantitative_result = 0.73

[[record]]
smiles_notation = "Cc1cc(NCCCCCCCNc2cc(C)nc3cc([N+](=O)[O-])ccc23)c2ccc([N+](=O)[O-])cc2n1.Cl"
property_name = "Rf"
quantitative_result = 0.79

[[record]]
smiles_notation = "Cc1cc(NCCCCCCNc2cc(C)nc3cc([N+](=O)[O-])ccc23)c2ccc([N+](=O)[O-])cc2n1.Cl"
property_name = "Rf"
quantitative_result = 0.77


# return Rf for each item in the list
1. Cc1cc(NCCCCCCNc2cc(C)nc3cc(N)ccc23)c2ccc(N)cc2n1.Cl
2. Cc1cc(NCCCNCCCNc2cc(C)nc3cc([N+](=O)[O-])ccc23)c2ccc([N+](=O)[O-])cc2n1.Cl

output:
1. 0.6
2. 0.69
